B1: CPEB3 Ribozyme (parent)
chain: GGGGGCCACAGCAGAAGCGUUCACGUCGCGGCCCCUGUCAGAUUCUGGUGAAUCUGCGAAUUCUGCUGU

Variants of: B1
Assay: self-cleavage, relative activity (ratio to wild type); higher = more cleavage; co-transcriptional
self-cleavage vs 0.2: at or above is Met, below is Not met.

>>> assigned_class("A13C U21A")
"Met"
>>> assigned_class("G1C U53G")
"Met"
>>> assigned_class("G2U G4U")
"Not met"
>>> assigned_class("A42C C57U")
"Met"
>>> assigned_class("C7U C54U")
"Met"
>>> assigned_class("C39G G50C")
"Met"
>>> assigned_class("C6G C57A")
"Not met"
>>> assigned_class("C22A U49G")
"Not met"
>>> assigned_class("G11C C39G")
"Met"
>>> assigned_class("C35A A51G")
"Met"
>>> assigned_class("C34A")
"Met"

Entry source: the RNAGym collection of RNA variant scans (doi:10.7554/elife.80360)
